The following compounds are listed with their measured TGI values.
Test system: 786-0 renal
Test: NCI tumour cell line growth inhibition, 48 h

Compound | Experimental Target | Unit Abbreviation | Comparator | TGI
C[n+]1c2ccccc2c(C(=O)Nc2ccc(S(=O)(=O)Nc3ncccn3)cc2)c2ccccc21 | 786-0 renal | µM | > | 100
C(=C\c1c2oc(-c3ccccc3)cc(-c3ccccc3)c-2c2ccccc12)/C=C1\c2ccccc2-c2c(-c3ccccc3)cc(-c3ccccc3)[o+]c21 | 786-0 renal | µM | > | 100
CSc1nc[nH]c1C(N)=S | 786-0 renal | µM | > | 100
COc1ccc(/C=N/NC(=S)Nc2cc(C)ccc2OC)cc1 | 786-0 renal | µM | = | 70.9
CCCCCCCCCCCCCCCC(=O)OCC1OC(n2cc(F)c(=O)[nH]c2=O)C(NC(=O)N(CCCl)N=O)C(O)C1O (stereo unspecified) | 786-0 renal | µM | = | 3.59
Cc1ccc(NCCN(C)C)c2c(=O)c3cc(O)ccc3sc12 | 786-0 renal | µM | = | 9.07
COc1ccc(/C=C\c2cc(OC)c(OC)c(OC)c2)c(NS(=O)(=O)c2ccc(C(C)(C)C)cc2)c1O | 786-0 renal | µM | = | 14.6
COCC1N=C(c2cc(OC)c(OC)c(OC)c2-c2cc3c(cc2[C@H](C)O)OCO3)O[C@H]1c1ccccc1 (stereo partly specified) | 786-0 renal | µM | > | 100
Clc1ccc(C2=NCON=C2c2ccc(Cl)cc2)cc1 | 786-0 renal | µM | = | 42.7
COc1cc2c(cc1OC)C(=O)/C(=C/c1ccc(N(C)C)cc1)CC2 | 786-0 renal | µM | > | 10
N#CC(NC(=O)CCl)=C(Cl)Cl | 786-0 renal | µM | = | 5.87
CNCc1ccc(-c2[nH]c3cc(F)cc4c3c2CCNC4=O)cc1 | 786-0 renal | µM | = | 41.5
COC(=O)[C@@H]1COC(=O)N1 | 786-0 renal | µM | > | 100
Cc1nc(-n2nc(-c3ccccc3)cc2-c2ccccc2)sc1C(=O)/C=C/c1ccccc1 | 786-0 renal | µM | > | 100
S=c1[nH]nc(CCCCCCCCc2n[nH]c(=S)o2)o1 | 786-0 renal | µM | > | 100
CCCCCCCCCCCCC1N=C(N)NC2(CCCO2)C1C(=O)OC (stereo unspecified) | 786-0 renal | µM | = | 16.9
O=C1c2ccccc2C(=O)c2sc(Nc3cc(Cl)ccc3Cl)nc21 | 786-0 renal | µM | = | 22.6
OCC#Cc1ccccc1C#Cc1ccc(C#Cc2ccccc2)cc1 | 786-0 renal | µM | = | 55.9
CCN(CC)CCOc1ccc2c(C)c(C(=O)OC)oc2c1C(=O)/C=C/c1ccc(OC)cc1 | 786-0 renal | µM | > | 45.7
CCSc1ncc(Br)c(Sc2nc(N)nc3nc[nH]c23)n1 | 786-0 renal | µM | > | 100
O=c1nc2[nH]c3c(-c4n[nH]c(=O)[nH]c4=O)cccc3c2n[nH]1 | 786-0 renal | µM | > | 100

* * *

System: CCRF-CEM leukemia
Test: NCI tumour cell line growth inhibition, 48 h
The following compounds are listed with their measured TGI values.

Compound | TGI
COC(=O)c1ccc2[nH]c(O)c(C(=Nc3ccc(N(C)C(=O)CN4CCN(C)CC4)cc3)c3ccccc3)c2c1 | > 100 µM
COC1OC(C(=O)O)C2OC(C)(C)OC12 (configuration not stated) | > 100 µM
O=C(O)/C=C/c1ccncc1 | > 100 µM
[Cl-].[Gd+3].[O-]/N=C(\c1ccccc1)c1ccccn1.[O-]/N=C(\c1ccccc1)c1ccccn1.[O-]/N=C(\c1ccccc1)c1ccccn1 | > 100 µM
O=C(Nc1ccc(C(F)(F)F)cc1[N+](=O)[O-])c1cccnc1 | > 100 µM
COc1cccc(CCCNC(=O)Cc2ccccc2CO)c1 | > 100 µM
COc1cccc(N=NN2CCCC2)c1 | > 100 µM
COC(=O)[C@H](Cc1cn(C)cn1)NC(=O)[C@@H](NC(=O)Nc1cc(C(F)(F)F)cc(C(F)(F)F)c1)C(C)C | > 10 µM
CCOc1ccc(Nc2nc(-c3c(C)nc4ncccn34)cs2)cc1 | 17.3 µM
NNC(=O)N/N=C1\CN(c2ccc(Cl)cc2Cl)C(=O)C(=O)C1c1nc2ccccc2o1 (configuration not stated) | > 100 µM
CSc1nc(C)c2c(n1)N(c1ccc(Cl)cc1)CC2 | > 100 µM
O=C(/C(=C/c1ccc(O)cc1)c1ccccc1)c1ccccc1 | 80.2 µM
COc1ccc(/C=C/C(C)=N/OCC(=O)Nc2ccc(Cl)cc2)cc1 | 29.9 µM
O=C(Oc1ccc2c(c1)CN(Cc1ccccc1)CO2)c1ccccc1 | > 100 µM
CC(=O)[C@]1(O)Cc2c(O)c3c(c(O)c2[C@@H](OC2CC(N)C(O)C(C)O2)C1)C(=O)c1c(OCc2ccccc2)cccc1C3=O (some centres not stated) | 1.45 µM
COC(=O)CC1CC2(C(=O)OC)c3[nH]c4ccccc4c3CCN2C1=O (configuration not stated) | > 100 µM
CN(C)c1ccc(N=C2C=CC(=C(C#N)C#N)c3ccccc32)cc1 | 3.46 µM
CC1(Cl)CC(C)(/C=C/Cl)C(Cl)CC1Cl (configuration not stated) | 59 µM
N#CC(NNC(=O)c1ccccc1O)c1c(O)ccc2ccccc12 (configuration not stated) | > 90.9 µM
Cc1ccc(NC(=O)C(=O)Cc2cccc[n+]2[O-])cc1C | > 100 µM
O=c1[nH]c2ccc([N+](=O)[O-])cc2nc1/C(=N/Nc1ccccc1)C(O)c1ccco1 (configuration not stated) | > 100 µM
N/C(=N\C(N)=N\c1nc2ccccc2s1)c1cnccn1 | > 100 µM
